Protocol: Inhibition of HCV C-terminal His-tagged NS5Bdelta21 enzyme assessed as reduction in NS5B-mediated RNA polymerization using [32P]-GpG primer, RNA template and rNTP nucleotide mix incubated for 120 mins by PAGE method
Parameters: species or system Hepacivirus hominis
Attribute Measured: pIC50
Schema: pIC50 number; meaning minus log10 of the concentration expressed in molar units.

// Input: C[C@@]1(O)[C@H](O)[C@@H](COP(=O)(O)OP(=O)(O)OP(=O)(O)O)O[C@H]1n1cnc2c(N)nc(N)nc21 . Output its pIC50 only. 5.47

* * *

System: HepG2
Protocol: Mitochondrial toxicity in human HepG2 cells assessed as effect on nuclear beta-actin DNA level incubated for 14 days by real-time PCR method
Assay type: cell-based
Condition Set: hepg2, 336 h
Attribute Measured: CC50

// Input: Nc1ccn([C@@H]2CS[C@H](CO)O2)c(=O)n1 . Output its CC50 only. > 10 µM

// Input: Nc1ccn([C@H]2CC[C@@H](CO)O2)c(=O)n1 . Output its CC50 only. < 10 µM

// Input: C[C@@]1(O)[C@H](O)[C@@H](CO)O[C@H]1n1cnc2c(N)nc(N)nc21 . Output its CC50 only. > 50 µM
